# Test system: johnsongrass (Sorghum halepense, SORHA)
# assay.protocol: Pre-emerge test, greenhouse herbicide activity screening
# Type: in vivo
# experimental.parameters: 250 g ai/ha; rated 14 days after application; 0 = no damage, 100 = complete death
Here the recorded Pre-emerge Herbicidal Activity, phytotoxicity rating (0-100), SORHA is given for each entry.
Output spec: single numeric token, no unit.

CCOc1ccc(C(=O)Nc2c(OC)c(Cl)cc(F)c2-n2c(=O)cc(C(F)(F)F)n(C)c2=O)cc1 ... 50

Ask: Report Pre-emerge Herbicidal Activity, phytotoxicity rating (0-100), SORHA for COc1c(Cl)cc(F)c(-n2c(=O)cc(C(F)(F)F)n(C)c2=O)c1NC(=O)c1ccc(Cl)cc1
Reply: 100

Ask: Answer with reported Pre-emerge Herbicidal Activity, phytotoxicity rating (0-100), SORHA of COc1c(Cl)cc(F)c(-n2c(=O)cc(C(F)(F)F)n(C)c2=O)c1NC(=O)c1ccc(CCl)cc1
Reply: 20

Ask: Please indicate Pre-emerge Herbicidal Activity, phytotoxicity rating (0-100), SORHA recorded for COc1c(Cl)cc(F)c(-n2c(=O)cc(C(F)(F)F)n(C)c2=O)c1N(C(=O)C=Cc1ccccc1Cl)C(=O)C=Cc1ccccc1Cl
Reply: 20

Ask: Supply Pre-emerge Herbicidal Activity, phytotoxicity rating (0-100), SORHA value. Item: COc1c(Cl)cc(F)c(-n2c(=O)cc(C(F)(F)F)n(C)c2=O)c1N(C(=O)COc1ccccc1)C(=O)COc1ccccc1
Reply: 95

Ask: Give Pre-emerge Herbicidal Activity, phytotoxicity rating (0-100), SORHA for the following molecule: Cn1c(C(F)(F)F)cc(=O)n(-c2c(F)cc(Cl)c(O)c2NC(=O)c2ncccn2)c1=O
Reply: 0

Ask: Output measured Pre-emerge Herbicidal Activity, phytotoxicity rating (0-100), SORHA for this item: COc1c(Cl)cc(F)c(-n2c(=O)cc(C(F)(F)F)n(C)c2=O)c1NC(=O)c1ccc(I)cc1
Reply: 95

Ask: State, in one line, measured Pre-emerge Herbicidal Activity, phytotoxicity rating (0-100), SORHA of COc1c(Cl)cc(F)c(-n2c(=O)cc(C(F)(F)F)n(C)c2=O)c1NC(=O)c1ccc2ccccc2c1
Reply: 60

Ask: State its Pre-emerge Herbicidal Activity, phytotoxicity rating (0-100), SORHA: COc1c(Cl)cc(F)c(-n2c(=O)cc(C(F)(F)F)n(C)c2=O)c1NC(=O)c1ccc2c(c1)OCO2
Reply: 100

Ask: Please supply the value of reported Pre-emerge Herbicidal Activity, phytotoxicity rating (0-100), SORHA for the item COc1c(Cl)cc(F)c(-n2c(=O)cc(C(F)(F)F)n(C)c2=O)c1NC(=O)c1cccnc1
Reply: 95

Ask: Specify measured Pre-emerge Herbicidal Activity, phytotoxicity rating (0-100), SORHA for COc1c(Cl)cc(F)c(-n2c(=O)cc(C(F)(F)F)n(C)c2=O)c1NC(=O)C=Cc1ccc(Cl)cc1 .
Reply: 0

Ask: Give the reported value of Pre-emerge Herbicidal Activity, phytotoxicity rating (0-100), SORHA for this record: COc1c(Cl)cc(F)c(-n2c(=O)cc(C(F)(F)F)n(C)c2=O)c1NC(=O)c1cnc2ccccc2n1
Reply: 95

Ask: Please report the measured Pre-emerge Herbicidal Activity, phytotoxicity rating (0-100), SORHA for COc1c(Cl)cc(F)c(-n2c(=O)cc(C(F)(F)F)n(C)c2=O)c1NC(=O)c1ccc(Cl)cc1Cl
Reply: 100
